test system: HCT-15 colon; test: NCI-60 one-dose screen, 48 h (100 = growth as untreated, 0 = no growth, -100 = all killed); conditions: 10 µM unless noted
This is part of a sample that, as a whole, favours compounds with a hit. Of some 83,000 tested, about 20% had one in any assay.
# growth listing for each entry below

compound: O=C1c2c(c3c4ccccc4[nH]c3c3ccc4ccccc4c23)C(=O)N1CCN1CCNCC1
measurement_units: %
growth: -45.2
--
compound: COc1ccc(/C=C/C(=O)c2cc3c(N)c(C(=O)Nc4cccc5ccccc45)sc3nc2C)cc1
measurement_units: %
growth: 44.1
--
compound: COc1ccc(C(=O)N2c3ccccc3Sc3ccccc32)c(OC)c1
measurement_units: %
growth: 19.2
--
compound: CC1OC(n2c3ccccc3c3c4c(c5c6ccccc6[nH]c5c32)C(=O)N(CCN2CCCC2)C4=O)CC(O)C1O (stereo not given)
measurement_units: %
growth: 10.7
--
compound: COc1ccc(C/C(C)=C(\c2ccc(Cl)cc2)c2ccc(OCCN3CCCCC3)cc2)cc1
measurement_units: %
growth: 84.3

###

tested on: UO-31 renal; experiment: NCI-60 one-dose screen, 48 h (100 = growth as untreated, 0 = no growth, -100 = all killed); conditions: 10 µM unless noted
The panel holds about 83,000 compounds, 20% with a hit somewhere; the sample as a whole holds those more often.
growth strictly under 40% means Yes; at 40% or over means No.

compound: CCn1cc(C(=O)O)c(=O)c2cc(F)c(N3CCN(CC(=O)Nc4ccc(S(=O)(=O)Nc5nccc(C)n5)cc4)C(C)C3)c(F)c21 (stereo not given)
system_under_test: UO-31 renal
group_label: No

compound: CCCCNC(=O)CC1=C(C)/C(=C/c2[nH]c(-c3ccc[nH]3)cc2OC)N=C1C
system_under_test: UO-31 renal
group_label: Yes

compound: CC(=O)Oc1ccc(N2C(=O)C(Cl)=C(Nc3cccc(C(F)(F)F)c3)C2=O)cc1
system_under_test: UO-31 renal
group_label: No

compound: O=S(=O)(NCCNc1nccc(-c2c(-c3ccc(F)c(O)c3)nc3occn23)n1)c1ccc(Cl)cc1
system_under_test: UO-31 renal
group_label: No

compound: Cc1nc2sc(C(=O)Nc3cccc4ccccc34)c(N)c2cc1C(O)c1ccccc1 (stereo not given)
system_under_test: UO-31 renal
group_label: Yes

compound: CCN(CC)CCn1c2ccc(OC)cc2c2sc3cc(OC)ccc3c(=O)c21
system_under_test: UO-31 renal
group_label: Yes

compound: O=c1[nH]c(Cc2nc3ccccc3s2)nc2cc(Br)ccc12
system_under_test: UO-31 renal
group_label: Yes

compound: Cc1ccc2c(c1)=C/C(=C\c1cc(-c3ccccc3)oc1O)C(=O)N=2
system_under_test: UO-31 renal
group_label: No

compound: Nc1nc2ccccc2c2c1S(=O)(=O)c1ccc(Cl)cc1C2=O
system_under_test: UO-31 renal
group_label: Yes

compound: NNc1nc(-c2cccnc2)nc2c1sc(=S)n2-c1ccccc1
system_under_test: UO-31 renal
group_label: No

compound: O=C(NCCCl)Nc1ncccc1OCc1ccccc1
system_under_test: UO-31 renal
group_label: No

compound: CCC(C)N(CCNc1cc(OC)cc2cccnc12)CC(C)C (stereo not given)
system_under_test: UO-31 renal
group_label: No

compound: CC(C)(C)CC(C)(C)NC(=O)Nc1ncccc1OCc1ccccc1
system_under_test: UO-31 renal
group_label: No

compound: COC(=O)[C@]12CCC(C)(C)C[C@H]1[C@H]1/C(=N/OCCc3nn[nH]n3)C[C@@H]3[C@@]4(C)CC[C@H](OC(C)=O)C(C)(C)[C@@H]4CC[C@@]3(C)[C@]1(C)CC2
system_under_test: UO-31 renal
group_label: Yes

compound: O=C(OC(CO)C(=O)NC12CC3CC(CC(C3)C1)C2)c1ccc(Cl)cc1 (stereo not given)
system_under_test: UO-31 renal
group_label: No

compound: Cn1cc(-c2csc(-c3cn(C(=O)OC(C)(C)C)c4ccc(Br)cc34)n2)c2ccnc(Cl)c21
system_under_test: UO-31 renal
group_label: No

compound: O=C(O)c1ccc(-n2cc(/C=N/Nc3ccccc3)c(-c3ccc(F)cc3F)n2)cc1
system_under_test: UO-31 renal
group_label: Yes

compound: Oc1c(Br)cc(Br)c2ccc(Cn3cc(-c4ccc(C(F)(F)F)cc4)nn3)nc12
system_under_test: UO-31 renal
group_label: No

compound: Cn1ccnc1C(=O)/C=C/c1ccc(C(=O)Nc2ccccc2O)cc1
system_under_test: UO-31 renal
group_label: Yes

compound: C=C1C(=O)O[C@H]2[C@H]1CC/C(Cn1cc(-c3ccccc3)nn1)=C\CC[C@@]1(C)O[C@@H]21
system_under_test: UO-31 renal
group_label: Yes

###

tested on: SK-OV-3 ovarian; test: NCI-60 one-dose screen, 48 h (100 = growth as untreated, 0 = no growth, -100 = all killed); settings: 10 µM unless noted
The panel holds about 83,000 compounds, 20% with a hit somewhere; the sample as a whole holds those more often. Active and inactive are the calls of the source. How the source made its calls: active means growth percent below 10; inactive means the rest.
# growth listing for each entry below

molecule: COc1ccc(\C=N/N=C(N)/C(N)=N\N=C/c2ccc(OC)cc2)cc1
growth: 96.1% (inactive)
--
molecule: O=C(CN1CCOCC1)Nc1nc(-c2cc3ccccc3oc2=O)cs1
growth: 116% (inactive)
--
molecule: COc1cc(C2c3cc(OC(C)=O)c(OC)cc3CC3C(=O)OCC32)ccc1OC(C)=O (stereo not given)
growth: 111% (inactive)
--
molecule: CC(=O)c1c(C)nc2ccccc2c1/C=C/c1ccc(F)cc1
growth: 100% (inactive)
--
molecule: O=C(Nc1cccc(-c2ccc(Cl)c(C(F)(F)F)c2)c1)C1CCN(Cc2cccc3cccnc23)CC1
growth: 55.4% (inactive)
--
molecule: CCCCC1=C(P(=O)(O)O)N[C@H](C(=O)O)CS1
growth: 80.7% (inactive)
--
molecule: CCCCNC(=O)CC1=C(C)/C(=C/c2[nH]c(-c3ccc[nH]3)cc2OC)N=C1C
growth: 51.7% (inactive)
--
molecule: COc1c(B(O)O)cccc1-c1cc(C)c2c(ccc3[nH]ncc32)n1
growth: 59.3% (inactive)
--
molecule: O=C(Cn1cc(CSc2nc3ccccc3o2)nn1)Nc1ccc(F)cc1F
growth: 124% (inactive)
--
molecule: NS(=O)(=O)c1ccccc1NC(=O)Nc1nc2ccccc2s1
growth: 97.3% (inactive)

###

Tested on: LOX IMVI melanoma
Experiment: NCI-60 one-dose screen, 48 h (100 = growth as untreated, 0 = no growth, -100 = all killed)
Details: 10 µM unless noted
Protocol: Growth inhibition of the LOX IMVI human tumor cell line is measured as a screen for anti-cancer activity. Cells are grown in 96 well plates and exposed to the test compound for 48 hours. Compounds are tested at a single concentration, which is 10^-5 M for most compounds. The reported endpoint is percent growth (GI% or GIPRCNT), where numbers from 0 - 100% represent growth inhibition, and numbers from -100% - 0 represent cell death. For example, a value of 40 represents 60% growth inhibition. […]
The panel holds about 83,000 compounds, 20% with a hit somewhere; the sample as a whole holds those more often.
Kind request: treat 50% as inclusive, so growth at 50% or higher is true, anything lower is false.

molecule: Cc1ccc(NC(=O)c2sc3nc(C)c(Br)c(C)c3c2N)cc1
group_label: true
//
molecule: CC(=O)c1c(C)nc(SCC(=O)Nc2cccc(O)c2)n1-c1ccc(Cl)cc1
group_label: true
//
molecule: COc1cc2ncnc(Nc3ccc(F)c(Cl)c3)c2cc1OCC(=O)N1CCN(c2ccccc2)CC1
group_label: true
//
molecule: Cn1ccnc1C(=O)/C=C/c1ccc(C(=O)Nc2ccccc2O)cc1
group_label: false
//
molecule: COC(=O)CC[C@H](C)[C@H]1CC[C@H]2[C@@H]3CC[C@@H]4CC5(CC[C@]4(C)[C@H]3CC(=O)[C@]12C)Nc1ccccc1NC5=NC(C)(C)C (stereo partly drawn)
group_label: false
//
molecule: CC(C)(C)[Si](C)(C)OC1[C@@H](CNC(=O)NC(=O)NC(N)=O)O[C@@H](n2cnc3c(NC(=O)Nc4ccccc4)ncnc32)[C@H]1O[Si](C)(C)C(C)(C)C (stereo partly drawn)
group_label: true
//
molecule: COC(=O)c1cc(N=C2NC(=O)/C(=C/C=C/c3ccccc3)S2)ccc1O
group_label: false
//
molecule: COc1ccc(/C=C/C(=O)c2ccc(Nc3ccnc4cc(Cl)ccc34)cc2)cc1
group_label: true

###

system: HOP-92 NSCLC; assay: NCI-60 one-dose screen, 48 h; conditions: 10 µM unless noted
Compounds without any hit were thinned out: in the full panel of roughly 83,000, 20% have a hit. Activity calls are given as the source filed them. How the source made its calls: active means growth percent below 10; inactive means the rest.
Outcome codes: T for active, F for inactive

compound: COC(=O)c1cc(N=C2NC(=O)/C(=C/C=C/c3ccccc3)S2)ccc1O
group_label: F
//
compound: CCN(CC)CC(O)COc1c(Br)c(Br)c(Br)c2c1OC(C)(C)C2 (stereo not given)
group_label: F
//
compound: COc1cc(OCc2cccc(Br)c2C)cc(OC)c1C=O
group_label: F
//
compound: Cc1cc(=O)oc2cc(OCc3nn4c(Nc5nc6ccccc6s5)c(-c5ccccc5)nc4s3)ccc12
group_label: F
//
compound: CCN(CC)Cc1cc(C=C2C(=O)NC(=S)NC2=O)cc(OC)c1O
group_label: F
//
compound: O=C(CSc1nc2ccc([N+](=O)[O-])cc2[nH]1)Nc1ccc([N+](=O)[O-])cc1
group_label: T
//
compound: CCC(=O)Oc1ccc(-c2ccccc2)cc1Br
group_label: F
//
compound: CC(C)COc1nc2c(c(=O)n(C)c(=O)n2C)n1C
group_label: F
//
compound: Cc1nc2sc(C(=O)Nc3ccc(Br)cc3)c(N)c2cc1C(O)c1ccccc1 (stereo not given)
group_label: F
//
compound: COc1ccc(-c2ccc(-c3ccc(C(=N)N)cc3)s2)cc1Cl
group_label: F
//
compound: CCOC(=O)c1cc2c(n1C)-c1nc(NC(C)=O)sc1CCC2
group_label: F
//
compound: N=C(N)c1ccc(-c2ccc(-c3ccc(Cl)cc3Cl)s2)cc1
group_label: F
//
compound: Oc1c(I)cc(I)cc1CNCc1ccccn1
group_label: F
//
compound: Cn1cc(-c2csc(-c3c[nH]c4ccccc34)n2)c2cnccc21
group_label: F
//
compound: CCN1C(=S)N(c2ccccc2)C2NC(=S)N(/N=C/C=C/c3ccccc3OC)C21 (stereo not given)
group_label: F
//
compound: Cc1ccc(-c2nc([P+](c3ccccc3)(c3ccccc3)c3ccccc3)c(S(=O)(=O)c3ccc(C)cc3)o2)cc1
group_label: T
//
compound: CCOC(=O)c1csc(NC(=O)COc2ccc(/C=C3\Oc4ccccc4C3=O)cc2)n1
group_label: F
//
compound: COc1ccc(C/C(C)=C(\c2ccc(Cl)cc2)c2ccc(OCCN3CCCCC3)cc2)cc1
group_label: F
//
compound: O=S(=O)(Nc1ccc(F)cc1F)c1ccc(-c2cnc(C3CC3)o2)cc1
group_label: F
//
compound: CCc1ccc(CCCC(=O)O)cc1
group_label: F
//
compound: CS(=O)(=O)Nc1cc(-c2ccc3ncnc(Nc4ccc5c(cnn5Cc5ccc(F)cc5)c4)c3c2)cnc1Cl
group_label: T
//
compound: CCSC(SCC)c1ccc(Cl)cc1
group_label: F
//
compound: N#Cc1c(-c2ccccc2)cc(-c2ccccc2)n(CCCC(=O)Nc2ccccc2N)c1=O
group_label: F
//
compound: CCN(CC)CCCCCNc1cc(OC(=O)c2ccc(Cl)cc2)cc2cccnc12
group_label: F
//
compound: O=S(=O)(Nc1cc(Cl)ccc1Cl)c1ccc(-c2cnc(C3CC3)o2)cc1
group_label: F
//
compound: COc1ccccc1N1CCCCC1
group_label: F
//
compound: c1ccc(-c2oc(-c3ccccc3)c(CN3CCCCC3)c2CN2CCCCC2)cc1
group_label: T
//
compound: O=[N+]([O-])c1ccc(O)cc1Br
group_label: F
//
compound: Nc1c(C(=O)Nc2ccccc2C(F)(F)F)sc2nc3c(cc12)CCC3
group_label: F
//
compound: CN(C)CC(C)(C)C(=O)/C=C/c1ccccc1
group_label: T
//
compound: COc1ccc(-c2cc(-c3cccnc3)nc3sc4c(=O)[nH]c(-c5ccc(Cl)cc5)nc4c23)cc1OC
group_label: F
//
compound: COC(=O)CC[C@H](C)[C@H]1CC[C@H]2[C@@H]3CC[C@@H]4CC5(CC[C@]4(C)[C@H]3CC(=O)[C@]12C)Nc1ccccc1NC5=NC(C)(C)C (stereo not given in full)
group_label: T
//
compound: COc1ccc(C2CC(c3ccc(Nc4nc(Nc5ccccc5)nc(Nc5ccccc5)n4)cc3)=NN2C(C)=O)cc1 (stereo not given)
group_label: F
//
compound: COC(=O)[C@@H](CCCCNC(=O)[C@]12CCC(C)(C)C[C@@H]1C1=CC[C@@H]3[C@@]4(C)C/C(=C/c5ccco5)C(=O)C(C)(C)[C@@H]4CC[C@@]3(C)[C@]1(C)CC2)NC(=O)[C@]12CCC(C)(C)C[C@@H]1C1=CC[C@@H]3[C@@]4(C)C/C(=C/c5ccco5)C(=O)C(C)(C)[C@@H]4CC[C@@]3(C)[C@]1(C)CC2
group_label: F
//
compound: Cn1cc(-c2nonc2-c2cn(C)c3ccccc23)c2ccccc21
group_label: F
//
compound: O=C(Nc1ccc(Oc2cccc(F)c2)c(Cl)c1)c1cccnc1
group_label: F
//
compound: N#CC1=C(c2ccccc2)Nc2c(c(-c3ccc(Cl)cc3)nn2-c2ccccc2)C12C(=O)Nc1ccc(Cl)cc12 (stereo not given)
group_label: F
//
compound: COc1cc(NS(=O)(=O)c2ccc(-c3cnc(C4CC4)o3)cc2)ccc1F
group_label: F
//
compound: N#Cc1nc(-c2ccccc2)oc1S(=O)(=O)N1CCN(c2ccccc2)CC1
group_label: F
//
compound: N#CSCC1CC(O)(c2ccccc2)CC(c2ccc(F)cc2)O1 (stereo not given)
group_label: F

# credit: PubChem BioAssay (NCI)
